Cited source: ChEMBL document CHEMBL1147678

test system: CCRF-CEM; test: Antiproliferative activity against human CCRF-CEM cell line in presence of hypoxanthine; type: functional, cell-based
measured_metric: IC50

Please review the following examples before continuing.
1. Nc1nc2c(c(=O)[nH]1)C[C@@H](CCc1ccc(C(=O)N[C@@H](CCC(=O)O)C(=O)O)cc1)CN2 [LOMETREXOL] :: > 100 µM
2. Nc1nc(N)c(CCCC(C(=O)C(F)(F)F)c2ccc(C(=O)N[C@@H](CCc3nnn[nH]3)C(=O)O)cc2)c(=O)[nH]1 (stereo not given in full) :: > 100 µM
3. Nc1nc(N)c(CCCC(C(=O)C(F)(F)F)c2ccc(C(=O)NC(CCC(=O)O)C(=O)O)cc2)c(O)n1 (stereo not given) :: > 100 µM
4. Nc1nc(N)c(CCCC(C(=O)C(F)(F)F)c2ccc(C(=O)NCC(=O)O)cc2)c(O)n1 (stereo not given) :: > 100 µM

Query block: Which IC50 is listed for Nc1nc(N)c(CCCC(C(=O)C(F)(F)F)c2ccc(C(=O)NCc3nnn[nH]3)cc2)c(=O)[nH]1 (stereo not given) ?
Result block: > 100 µM

* * *

# pKi listing for each entry below
biological target: Bifunctional purine biosynthesis protein ATIC (Homo sapiens); assay: Inhibition of human recombinant AICAR Tfase
Sequence (P31939 whole entry): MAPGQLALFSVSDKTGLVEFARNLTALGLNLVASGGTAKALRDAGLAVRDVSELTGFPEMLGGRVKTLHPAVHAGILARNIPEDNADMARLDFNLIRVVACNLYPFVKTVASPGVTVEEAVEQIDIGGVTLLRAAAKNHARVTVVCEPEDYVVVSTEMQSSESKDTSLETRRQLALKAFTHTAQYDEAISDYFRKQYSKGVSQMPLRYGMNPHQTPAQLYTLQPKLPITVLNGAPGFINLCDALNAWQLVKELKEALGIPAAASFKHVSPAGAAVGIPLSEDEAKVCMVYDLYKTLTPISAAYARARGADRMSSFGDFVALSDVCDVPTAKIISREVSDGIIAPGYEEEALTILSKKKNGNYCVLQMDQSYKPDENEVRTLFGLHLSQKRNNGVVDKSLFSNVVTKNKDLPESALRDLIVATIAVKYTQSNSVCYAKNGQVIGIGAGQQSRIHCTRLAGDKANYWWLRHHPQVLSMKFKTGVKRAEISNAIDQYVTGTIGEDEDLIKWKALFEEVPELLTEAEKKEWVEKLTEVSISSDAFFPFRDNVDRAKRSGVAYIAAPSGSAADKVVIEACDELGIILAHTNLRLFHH
pKi: −log10 of the molar value.

1) Nc1nc(N)c(CCCC(C(=O)C(F)(F)F)c2ccc(C(=O)NCC(=O)O)cc2)c(O)n1 (stereo not given) :: < 4.00
2) Nc1nc(N)c(CCCC(C(=O)C(F)(F)F)c2ccc(C(=O)NCc3nnn[nH]3)cc2)c(=O)[nH]1 (stereo not given) :: < 4.00

Query block: Which pKi is listed for Nc1nc(N)c(CCCC(C(=O)C(F)(F)F)c2ccc(C(=O)N[C@@H](CCc3nnn[nH]3)C(=O)O)cc2)c(=O)[nH]1 (stereo not given in full) ?
Result block: 4.34

Query block: Which pKi is listed for Nc1nc(N)c(CCCC(C(=O)C(F)(F)F)c2ccc(C(=O)NC(CCC(=O)O)C(=O)O)cc2)c(O)n1 (stereo not given) ?
Result block: < 4.00

Query block: Which pKi is listed for Nc1nc2c(c(=O)[nH]1)C[C@@H](CCc1ccc(C(=O)N[C@@H](CCC(=O)O)C(=O)O)cc1)CN2 [LOMETREXOL] ?
Result block: < 4.00

* * *

Target: Trifunctional purine biosynthetic protein adenosine-3 (Homo sapiens, UniProt P22102)
Sequence (P22102 whole entry): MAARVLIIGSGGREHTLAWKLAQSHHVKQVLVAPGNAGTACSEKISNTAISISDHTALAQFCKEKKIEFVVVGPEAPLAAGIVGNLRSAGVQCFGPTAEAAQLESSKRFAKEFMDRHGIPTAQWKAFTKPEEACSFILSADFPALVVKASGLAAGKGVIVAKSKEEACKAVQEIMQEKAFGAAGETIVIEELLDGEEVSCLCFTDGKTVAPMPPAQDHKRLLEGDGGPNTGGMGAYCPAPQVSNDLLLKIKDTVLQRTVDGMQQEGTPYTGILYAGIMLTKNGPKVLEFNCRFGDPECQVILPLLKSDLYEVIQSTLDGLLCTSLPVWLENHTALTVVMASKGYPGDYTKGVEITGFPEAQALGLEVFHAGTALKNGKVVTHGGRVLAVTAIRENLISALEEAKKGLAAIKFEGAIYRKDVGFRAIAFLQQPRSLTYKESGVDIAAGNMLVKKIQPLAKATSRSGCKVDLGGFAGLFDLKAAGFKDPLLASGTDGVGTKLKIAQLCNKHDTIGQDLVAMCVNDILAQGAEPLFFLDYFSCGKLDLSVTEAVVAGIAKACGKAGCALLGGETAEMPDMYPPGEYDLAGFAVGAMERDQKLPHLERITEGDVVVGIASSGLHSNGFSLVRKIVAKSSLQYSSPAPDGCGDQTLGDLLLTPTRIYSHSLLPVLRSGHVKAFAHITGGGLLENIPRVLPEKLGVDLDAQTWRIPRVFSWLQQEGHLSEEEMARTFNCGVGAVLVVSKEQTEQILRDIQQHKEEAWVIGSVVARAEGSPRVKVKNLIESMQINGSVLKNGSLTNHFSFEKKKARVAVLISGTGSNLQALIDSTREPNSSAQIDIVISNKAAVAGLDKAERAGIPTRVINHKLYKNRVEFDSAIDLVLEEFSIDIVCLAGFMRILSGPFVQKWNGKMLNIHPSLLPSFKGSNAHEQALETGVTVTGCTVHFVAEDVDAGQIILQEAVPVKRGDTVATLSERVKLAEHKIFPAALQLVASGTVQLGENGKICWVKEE
Assay: Inhibition of human recombinant GAR Tfase
measured_metric: pKi
# reply with the number alone; pKi is -log10 of concentration in mol/L

1. Nc1nc(N)c(CCCC(C(=O)C(F)(F)F)c2ccc(C(=O)N[C@@H](CCc3nnn[nH]3)C(=O)O)cc2)c(=O)[nH]1 (stereo partly drawn) :: 6.89
2. Nc1nc(N)c(CCCC(C(=O)C(F)(F)F)c2ccc(C(=O)NCC(=O)O)cc2)c(O)n1 (stereo not drawn) :: 4.68

Query block: Which pKi is listed for Nc1nc(N)c(CCCC(C(=O)C(F)(F)F)c2ccc(C(=O)NCc3nnn[nH]3)cc2)c(=O)[nH]1 (stereo not drawn) ?
Result block: 5.30
